# Test system: OVCAR-3 ovarian
# assay.method.text: NCI-60 one-dose screen, 48 h
# experimental.parameters: 10 µM unless noted
About 83,000 compounds went through this panel and 20% of them were active in at least one assay; those are over-represented in the sample as a whole. Calls of active or inactive are those of the source. How the source made its calls: active means growth percent below 10; inactive means the rest.
Labels: active, inactive

{"compound": "O=C(O)c1ccc2c(c1)nc(Nc1cccc(Cl)c1)c1ccncc12", "cat": "active"}
{"compound": "CCOC(=O)C1=C(C)N=C2Sc3cccc(OC)c3N2[C@H]1c1ccccn1", "cat": "inactive"}
{"compound": "CO[C@@H](C(=O)N1Cc2[nH]nc(NC(=O)c3ccc(N4CCN(C)CC4)cc3)c2C1)c1ccccc1", "cat": "inactive"}
{"compound": "CC(=Nc1ccccc1)C1=C(O)C(Cc2ccccc2)NC1=O (stereo unspecified)", "cat": "active"}
{"compound": "C#Cc1cccc(Nc2ncnc3cc(OCCOC)c(OCCOC)cc23)c1", "cat": "inactive"}
{"compound": "CCOC(=O)C1=C(C)N=C2Sc3cc(OC(F)(F)F)ccc3N2[C@H]1c1ccccn1", "cat": "inactive"}
{"compound": "O=C(Nc1ccc(C2=NCCCN2)cc1)c1ccc(C(=O)Nc2ccc(C3=NCCCN3)cc2)nc1", "cat": "inactive"}
{"compound": "CO[C@H]1C[C@@H]2CC[C@@H](C)[C@@](O)(O2)C(=O)C(=O)N2CCCC[C@H]2C(=O)O[C@H]([C@H](C)C[C@@H]2CC[C@@H](OC(=O)C(C)(CO)CO)[C@H](OC)C2)CC(=O)[C@H](C)/C=C(\\C)[C@@H](O)[C@@H](OC)C(=O)[C@H](C)C[C@H](C)\\C=C/C=C/C=C/1C", "cat": "inactive"}
{"compound": "CN1C/C=C\\CCOc2cccc(c2)-c2ccnc(n2)Nc2cccc(c2)C1", "cat": "active"}
{"compound": "C=CC(=O)Nc1cc(Nc2nccc(-c3cn(C)c4ccccc34)n2)c(OC)cc1N(C)CCN(C)C", "cat": "active"}
{"compound": "COc1ccc(CCCc2c3[n+](cc4c(OC)c(OC)ccc24)CCc2cc4c(cc2-3)OCO4)cc1", "cat": "inactive"}
{"compound": "COC(=O)Nc1nc2ccc(C(=O)c3ccc(N(C)C4COC4)cc3)cc2[nH]1", "cat": "inactive"}
{"compound": "CO[C@H]1C[C@@H]2CC[C@@H](C)[C@@](O)(O2)C(=O)C(=O)N2CCCC[C@H]2C(=O)O[C@H]([C@H](C)C[C@@H]2CC[C@@H](O)[C@H](OC)C2)CC(=O)[C@H](C)/C=C(\\C)[C@@H](O)[C@@H](OC)C(=O)[C@H](C)C[C@H](C)\\C=C/C=C/C=C/1C", "cat": "inactive"}
{"compound": "Nc1ccc(S(=O)(=O)O)c2cc(S(=O)(=O)O)cc(O)c12", "cat": "inactive"}
{"compound": "O=C(CNc1nc2ccccc2s1)Nc1ccc(-c2nc3ccccc3s2)cc1", "cat": "inactive"}
{"compound": "O=C1NC(=O)/C(=C/c2ccc3nccc(-c4ccncc4)c3c2)S1", "cat": "active"}
{"compound": "COC(=O)C1=C(C(=O)OC)C23C=C(C)C1C2=C(C)C1(CC1)[C@@](C)(O)C3=O (stereo partly specified)", "cat": "active"}
{"compound": "CC(N)C(Cc1ccccc1)c1ccc(Cl)cc1 (stereo unspecified)", "cat": "inactive"}
{"compound": "CC(=O)C1CC(C)CCC1C(C)C (stereo unspecified)", "cat": "inactive"}
{"compound": "Cc1cc(O)c2c(c1)C1OC(=O)CCCCCN1C1=C2C(=O)c2cccc(OC3CC(O)C(O)C(C)O3)c2C1=O (stereo unspecified)", "cat": "active"}
{"compound": "CNC(=O)c1nn(C)c2c1C(C)(C)Cc1cnc(Nc3ccc(N4CCN(C)CC4)cc3)nc1-2", "cat": "inactive"}
{"compound": "C=CC(=O)Nc1cccc(Oc2nc(Nc3ccc(N4CCN(C)CC4)cc3)nc3ccsc23)c1", "cat": "active"}
{"compound": "C=CCN1C(=O)c2cccc3c(-c4ccc5c(c4)ncn5C4CCCCC4)ccc(c23)C1=O", "cat": "inactive"}
{"compound": "Cc1cc(C2(c3ccc(O)c(C)c3)OS(=O)(=O)c3ccccc32)ccc1O", "cat": "inactive"}
{"compound": "COc1cc2c3c(c1)nc(C)n3CCC2", "cat": "inactive"}
{"compound": "CN(c1ncccc1CNc1nc(Nc2ccc3c(c2)CC(=O)N3)ncc1C(F)(F)F)S(C)(=O)=O", "cat": "inactive"}
{"compound": "Cc1cc(Oc2ccccc2)ccc1Nc1ncnc2ccc(-c3cnc(Cl)c(NS(C)(=O)=O)c3)cc12", "cat": "inactive"}
{"compound": "NC(=O)c1c(OCc2c(F)cc(Br)cc2F)nsc1NC(=O)NCCCCN1CCCC1", "cat": "active"}
{"compound": "N#Cc1c(C(F)(F)F)cc(Nc2ccc3nc(NCCN4CCCC4)oc3c2)n2c1nc1ccccc12", "cat": "inactive"}
{"compound": "C[N+](C)(CCOC(c1ccccc1)c1ccccc1)CC(=O)OCc1ccccc1", "cat": "inactive"}
{"compound": "Cc1ccc(NC(=O)Nc2ccc(Nc3ncnc4sc5c(c34)CCOC5)cc2)cc1Cl", "cat": "inactive"}
{"compound": "Cc1cc2c(-c3nc4ccccn4c3Nc3cccc4ccccc34)c(O)c(O)cc2c(O)c1-c1c(C)cc2c(-c3nc4ccccn4c3Nc3cccc4ccccc34)c(O)c(O)cc2c1O", "cat": "inactive"}
{"compound": "CCCCn1c(C)nc2cc(Nc3nc(N4CCCCC4)nc4nc[nH]c34)ccc21", "cat": "inactive"}
{"compound": "O=C1OCC2=C1C(c1cccc(F)c1)c1cc3c(cc1N2CCO)OCCO3 (stereo unspecified)", "cat": "active"}
{"compound": "c1ccc2c(c1)CCN(NCCN1CCCC1)C2", "cat": "inactive"}
{"compound": "Cc1cccc(C)c1N1C(c2ccccc2)=NNC12C=CC(=O)c1c(O)cccc12 (stereo unspecified)", "cat": "inactive"}
